System: CH1
test-protocol: Cytotoxicity (growth inhibition), 96 hour exposure, ovarian cell line panel
reported-conditions: read-out: Cytotoxicity IC50, CH1
This section presents compounds with their documented IC50 values.
Could you give the number and then its unit, please?

>>> df
                                   compound  value_reported
0  Oc1ccc(-c2nc3cc(-c4ccc5[nH]c(-c6ccc(O)cc6)nc5c4)ccc3[nH]2)cc1 [Compound 9]         1050 nM
1  CN(C)CCCOc1ccc(-c2nc3cc(-c4ccc5[nH]c(-c6ccc(OCCCN(C)C)cc6)nc5c4)ccc3[nH]2)cc1 [Compound 13]          240 nM

Req: Recorded IC50 for CN1CCN(c2ccc3[nH]c(-c4ccc5[nH]c(-c6ccc(O)cc6)nc5c4)nc3c2)CC1 [Hoechst 33258, reference compound] , please?
Resp: 26500 nM

###

system-tested: A/T sites of a natural DNA fragment
test-protocol: DNase I footprinting with a natural DNA fragment
reported-conditions: quantitative DNase I footprinting; 5′-AATT site; read-out: affinity for the 5′-AATT site
experimental-readout: pKd
In plain terms, pKd is the concentration in mol/L turned into minus its base-10 logarithm.

Req: Given the entry `CN(C)CCCOc1ccc(-c2nc3cc(-c4ccc5[nH]c(-c6ccc(OCCCN(C)C)cc6)nc5c4)ccc3[nH]2)cc1` , report its measured pKd.
Resp: 7.52
